Reported EC50 values for the following molecules.
Target: UniProt P40238
Sequence (P40238 26-635): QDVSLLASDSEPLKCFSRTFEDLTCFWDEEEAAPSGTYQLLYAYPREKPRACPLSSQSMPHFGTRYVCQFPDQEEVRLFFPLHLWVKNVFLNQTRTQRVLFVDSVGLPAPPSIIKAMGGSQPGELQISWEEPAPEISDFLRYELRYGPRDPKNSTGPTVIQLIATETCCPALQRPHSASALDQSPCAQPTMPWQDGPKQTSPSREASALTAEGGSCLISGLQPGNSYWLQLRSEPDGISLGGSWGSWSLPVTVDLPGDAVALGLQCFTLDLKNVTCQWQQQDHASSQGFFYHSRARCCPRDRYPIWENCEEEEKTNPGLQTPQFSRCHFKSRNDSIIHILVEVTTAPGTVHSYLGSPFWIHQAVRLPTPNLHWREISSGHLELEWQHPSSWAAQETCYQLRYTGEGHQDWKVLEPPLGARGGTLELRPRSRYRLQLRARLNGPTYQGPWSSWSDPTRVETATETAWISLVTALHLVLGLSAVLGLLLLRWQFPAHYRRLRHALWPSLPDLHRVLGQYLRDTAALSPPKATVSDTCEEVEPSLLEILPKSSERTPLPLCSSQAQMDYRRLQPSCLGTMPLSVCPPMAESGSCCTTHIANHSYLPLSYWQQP
Experiment: Microphysiometer assay: rate of acidification of extracellular medium on TPO receptor stimulation
Type: cell-based
Details: Table 4, cyclized compounds; microphysiometer; read-out: EC50 (nM) Microonys
Where a SMILES comes first, the peptide text is derived from it.

1. CC[C@H](C)[C@@H]1NC(=O)[C@H](Cc2c[nH]c3ccccc23)NC(=O)[C@H](CCC(=O)O)NC(=O)[C@H](CCCNC(=N)N)NC(=O)[C@H](CC(C)C)NC(=O)[C@H]([C@@H](C)O)NC(=O)[C@@H]2CCCN2C(=O)CNC(=O)[C@H](CC(=O)O)NC(=O)[C@H](C)NC(=O)CC[C@@H](C(N)=O)NC(=O)[C@H](Cc2ccccc2)NC(=O)[C@H](CO)NC1=O (HELM PEPTIDE1{A.D.G.P.T.L.R.E.W.I.S.F.E.[am]}$PEPTIDE1,PEPTIDE1,1:R1-13:R3$$$V2.0) ... < 200000 nM

Consider the additional molecule presented here.
Request: Give reported EC50 value for CC[C@H](C)[C@@H]1NC(=O)[C@H](Cc2c[nH]c3ccccc23)NC(=O)[C@H](CCC(=O)O)NC(=O)[C@H](CCCNC(=N)N)NC(=O)[C@H](CC(C)C)NC(=O)[C@H]([C@@H](C)O)NC(=O)[C@@H]2CCCN2C(=O)CNC(=O)[C@H](CC(=O)O)NC(=O)[C@H](C)NC(=O)C[S+]([O-])C[C@@H](C(N)=O)NC(=O)[C@H](Cc2ccccc2)NC(=O)[C@H](CO)NC1=O (some centres unmarked) (HELM PEPTIDE1{A.D.G.P.T.L.R.E.W.I.S.F.[O=C([C@H](C[S+]([O-])CC(=O)[*:3])N[*:1])[*:2]].[am]}$PEPTIDE1,PEPTIDE1,1:R1-13:R3$$$V2.0)
Result: < 200000 nM

====

Biological target: TPO-R (Homo sapiens)
Construct: made in house
Sequence (P40238 26-491 limits assumed): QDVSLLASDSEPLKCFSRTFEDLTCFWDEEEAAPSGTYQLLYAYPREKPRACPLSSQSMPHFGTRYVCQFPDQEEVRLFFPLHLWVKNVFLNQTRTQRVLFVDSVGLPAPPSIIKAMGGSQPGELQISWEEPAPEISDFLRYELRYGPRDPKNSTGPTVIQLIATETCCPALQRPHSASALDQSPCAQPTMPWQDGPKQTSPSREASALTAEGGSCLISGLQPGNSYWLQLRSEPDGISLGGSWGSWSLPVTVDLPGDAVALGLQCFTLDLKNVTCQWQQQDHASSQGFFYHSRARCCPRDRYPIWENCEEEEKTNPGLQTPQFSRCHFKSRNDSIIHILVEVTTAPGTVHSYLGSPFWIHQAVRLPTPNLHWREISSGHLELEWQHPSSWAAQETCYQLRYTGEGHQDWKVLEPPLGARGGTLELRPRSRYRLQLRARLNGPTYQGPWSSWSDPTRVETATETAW
Assay: Competition binding assay (equilibrium binding ELISA, MBP-TPO156 tracer) on immobilized TPO-R
Conditions: Table 4, cyclized compounds; read-out: IC50
pIC50: −log10 of the molar value. Where a SMILES comes first, the peptide text is derived from it.
measurement type: pIC50

1) CC[C@H](C)[C@@H]1NC(=O)[C@H](Cc2c[nH]c3ccccc23)NC(=O)[C@H](CCC(=O)O)NC(=O)[C@H](CCCNC(=N)N)NC(=O)[C@H](CC(C)C)NC(=O)[C@H]([C@@H](C)O)NC(=O)[C@@H]2CCCN2C(=O)CNC(=O)[C@H](CC(=O)O)NC(=O)[C@H](C)NC(=O)CSCC[C@@H](C(N)=O)NC(=O)[C@H](Cc2ccccc2)NC(=O)[C@H](CO)NC1=O (HELM PEPTIDE1{[O=C(C[*:3])[*:2]].A.D.G.P.T.L.R.E.W.I.S.F.[O=C([C@H](CCS[*:3])N[*:1])[*:2]].[am]}$PEPTIDE1,PEPTIDE1,1:R3-14:R3$$$V2.0) ... ≥ 6.30
2) CC[C@H](C)[C@@H]1NC(=O)[C@H](Cc2c[nH]c3ccccc23)NC(=O)[C@H](CCC(=O)O)NC(=O)[C@H](CCCNC(=N)N)NC(=O)[C@H](CC(C)C)NC(=O)[C@H]([C@@H](C)O)NC(=O)[C@@H]2CCCN2C(=O)CNC(=O)[C@H](CC(=O)O)NC(=O)[C@H](C)NC(=O)CSC(C)(C)[C@@H](C(N)=O)NC(=O)[C@H](Cc2ccccc2)NC(=O)[C@H](CO)NC1=O (HELM PEPTIDE1{[O=C(C[*:3])[*:2]].A.D.G.P.T.L.R.E.W.I.S.F.[Pen].[am]}$PEPTIDE1,PEPTIDE1,1:R3-14:R3$$$V2.0) ... ≥ 3.70
3) CC[C@H](C)[C@@H]1NC(=O)[C@H](Cc2c[nH]c3ccccc23)NC(=O)[C@H](CCC(=O)O)NC(=O)[C@H](CCCNC(=N)N)NC(=O)[C@H](CC(C)C)NC(=O)[C@H]([C@@H](C)O)NC(=O)[C@@H]2CCCN2C(=O)CNC(=O)[C@H](CC(=O)O)NC(=O)[C@H](C)NC(=O)[C@H](N)C(C)(C)SSC[C@H](C(N)=O)NC(=O)[C@H](Cc2ccccc2)NC(=O)[C@H](CO)NC1=O (HELM PEPTIDE1{[CC(C)(S[*:3])[C@@H](N)C(=O)[*:2]].A.D.G.P.T.L.R.E.W.I.S.F.[dC].[am]}$PEPTIDE1,PEPTIDE1,1:R3-14:R3$$$V2.0) ... ≥ 6.30

Request: Give reported pIC50 value for CC[C@H](C)[C@@H]1NC(=O)[C@H](Cc2c[nH]c3ccccc23)NC(=O)[C@H](CCC(=O)O)NC(=O)[C@H](CCCNC(=N)N)NC(=O)[C@H](CC(C)C)NC(=O)[C@H]([C@@H](C)O)NC(=O)[C@@H]2CCCN2C(=O)CNC(=O)[C@H](CC(=O)O)NC(=O)[C@H](C)NC(=O)CC[C@@H](C(N)=O)NC(=O)[C@H](Cc2ccccc2)NC(=O)[C@H](CO)NC1=O (HELM PEPTIDE1{A.D.G.P.T.L.R.E.W.I.S.F.E.[am]}$PEPTIDE1,PEPTIDE1,1:R1-13:R3$$$V2.0)
Result: ≥ 3.70

====

Target: TPO-R (Homo sapiens)
Construct: made in house
Sequence (P40238 26-491 limits assumed): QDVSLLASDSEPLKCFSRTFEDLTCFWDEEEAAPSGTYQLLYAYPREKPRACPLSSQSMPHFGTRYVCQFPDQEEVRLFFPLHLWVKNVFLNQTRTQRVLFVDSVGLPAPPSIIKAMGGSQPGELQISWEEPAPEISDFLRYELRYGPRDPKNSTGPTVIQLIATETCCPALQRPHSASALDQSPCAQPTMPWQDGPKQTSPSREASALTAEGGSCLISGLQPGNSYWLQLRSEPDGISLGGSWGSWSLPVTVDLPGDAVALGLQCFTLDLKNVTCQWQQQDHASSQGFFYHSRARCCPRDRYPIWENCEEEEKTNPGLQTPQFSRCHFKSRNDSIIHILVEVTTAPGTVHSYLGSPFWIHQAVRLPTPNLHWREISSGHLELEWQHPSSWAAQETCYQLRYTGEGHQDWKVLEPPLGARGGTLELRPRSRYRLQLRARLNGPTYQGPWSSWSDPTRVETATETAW
Test: Competition binding assay (equilibrium binding ELISA, MBP-TPO156 tracer) on immobilized TPO-R
Details: Table 5; read-out: IC50
pIC50: −log10 of the molar value. Where a SMILES comes first, the peptide text is derived from it.
Reported pIC50 values for the following compounds.

1) CC[C@H](C)[C@@H]1NC(=O)[C@H](Cc2c[nH]c3ccccc23)NC(=O)[C@H](CCC(=O)O)NC(=O)[C@H](CCCNC(=N)N)NC(=O)[C@H](CC(C)C)NC(=O)[C@H]([C@@H](C)O)NC(=O)[C@@H]2CCCN2C(=O)CNC(=O)[C@H](CC(=O)O)NC(=O)[C@H](C)NC(=O)[C@@H](N)CSSC[C@@H](C(N)=O)NC(=O)CCCCNC1=O [S,F-Ava] (HELM PEPTIDE1{C.A.D.G.P.T.L.R.E.W.I.[O=C(CCCCN[*:1])[*:2]].C.[am]}$PEPTIDE1,PEPTIDE1,1:R3-13:R3$$$V2.0; N-terminus and C-terminus assumed) ... ≥ 6.30
2) CC[C@H](C)[C@@H]1NC(=O)[C@H](Cc2c[nH]c3ccccc23)NC(=O)[C@H](CCC(=O)O)NC(=O)[C@H](CCCNC(=N)N)NC(=O)[C@H](CC(C)C)NC(=O)[C@H]([C@@H](C)O)NC(=O)[C@@H]2CCCN2C(=O)[C@@H](N)CSSC[C@@H](C(N)=O)NC(=O)[C@H](Cc2ccccc2)NC(=O)[C@H](CO)NC1=O [ADG-deletion] (HELM PEPTIDE1{C.P.T.L.R.E.W.I.S.F.C.[am]}$PEPTIDE1,PEPTIDE1,1:R3-11:R3$$$V2.0; N-terminus and C-terminus assumed) ... ≥ 3.70
3) CC[C@H](C)[C@@H]1NC(=O)[C@H](Cc2c[nH]c3ccccc23)NC(=O)[C@H](CCC(=O)O)NC(=O)[C@H](CCCNC(=N)N)NC(=O)[C@H](CC(C)C)NC(=O)[C@H]([C@@H](C)O)NC(=O)[C@@H]2CCCN2C(=O)CNC(=O)[C@H](CC(=O)O)NC(=O)[C@H](C)NC(=O)[C@@H](N)CSSC[C@@H](C(N)=O)NC(=O)[C@H](CC2CCCCC2)NC(=O)[C@H](CO)NC1=O [F-CHA] (HELM PEPTIDE1{C.A.D.G.P.T.L.R.E.W.I.S.[Cha].C.[am]}$PEPTIDE1,PEPTIDE1,1:R3-14:R3$$$V2.0; N-terminus and C-terminus assumed) ... ≥ 6.30

Consider the additional compound presented here.
Request: Give reported pIC50 value for CC[C@@H]1NC(=O)[C@H]([C@@H](C)CC)NC(=O)[C@H](Cc2c[nH]c3ccccc23)NC(=O)[C@H](CCC(=O)O)NC(=O)[C@H](CCCNC(=N)N)NC(=O)[C@H](CC(C)C)NC(=O)[C@H]([C@@H](C)O)NC(=O)[C@@H]2CCCN2C(=O)CNC(=O)[C@H](CC(=O)O)NC(=O)[C@H](C)NC(=O)[C@@H](N)CSSC[C@@H](C(N)=O)NC(=O)[C@H](Cc2ccccc2)NC1=O [S-Abu] (HELM PEPTIDE1{C.A.D.G.P.T.L.R.E.W.I.[Abu].F.C.[am]}$PEPTIDE1,PEPTIDE1,1:R3-14:R3$$$V2.0; N-terminus and C-terminus assumed)
Result: ≥ 6.30
